Values were extracted from patent US12559750B2.

TEST_TARGET: AMPA-R
ASSAY_NAME: [3H]AMPA radioligand binding assay on rat brain synaptic membranes
CONDITION_NOTES: Experiment #2
For each record, write down the corresponding IC50.

# example entries with known answers
> print(dat)
                                biosequence  test.target  property.name    result
1  ASGSCMAFCFUFUMUSGS [RGLS4326, reference compound]       AMPA-R           IC50   0.27 µM
2           AEGECMAFCFUFUMTEGE [RG-NG-1009]       AMPA-R           IC50  > 100 µM
3           ASGSCSAFCFUFUMUSCS [RG-NG-1027]       AMPA-R           IC50  > 100 µM

Quick one: give me IC50 for each item below, same order please.
1. AMAMGLCLALCLUMTLUCM [RG-NG-1030]
2. ASGSCSALCFUFUMUSCS [RG-NG-1028]
3. ASGLCMAFCFUFUMTLGS [RG-NG-1012]
4. ASGSCFAFCFUFUFUSGS [RG-NG-1007]

Given back:
> 100 µM
> 100 µM
2.56 µM
1.69 µM

Field: IC50. Fill in for each record below.
1. ASASGSCMAFCFUFUMUS [RG-NG-1013]
2. ASGSCMAFCFUFUMUSUS [RG-NG-1017]
3. AMAMGLCLALCLUMTLUM [RG-NG-1031]
4. ASGSCMALCFUFUMUSCS [RG-NG-1026]
5. ASGSCMAFCFUFUMUSCS [RG-NG-1016]
6. ASGSCMAFCFUFUMUS [RG-NG-1014]
7. ASGSCSASCSUSUSUS [RG-NG-1002]

Given back:
["> 100 µM", "> 100 µM", "> 100 µM", "> 100 µM", "> 100 µM", "> 100 µM", "> 100 µM"]

Batch lookup, IC50 per entry.
1. AEGECMAFCFUFUMUSGS [RG-NG-1010]
2. ALGLCMAFCFUFUMUSGS [RG-NG-1011]
3. ASGECMAFCFUFUMTEGS [RG-NG-1008]
4. AMGLCLALCLUMTLUCM [RG-NG-1029]
5. ASGSCSASCSUSUSUSGS [RG-NG-1001]
6. ASGSCMAFCFUFUMUSAS [RG-NG-1015]
7. ASCSAMAFUFGFCMASCS [RG5124, reference compound]

Given back:
1: 3.44 µM; 2: 2.56 µM; 3: 56.6 µM; 4: > 100 µM; 5: 0.19 µM; 6: > 100 µM; 7: > 100 µM

----------
Tested on: AMPA-R
ASSAY_NAME: [3H]AMPA radioligand binding assay on rat brain synaptic membranes
CONDITION_NOTES: Experiment #2, 10 uM
Provide the recorded % Inhibition @ 10 uM for the entries that follow.
One number for each entry, in %.

Please review the entries below; each comes with its answer.
> print(dat)
                        biosequence  test.target  unit.descriptor  number
1   AEGECMAFCFUFUMTEGE [RG-NG-1009]       AMPA-R                %      13
2   ASASGSCMAFCFUFUMUS [RG-NG-1013]       AMPA-R                %     3.7
3  AMAMGLCLALCLUMTLUCM [RG-NG-1030]       AMPA-R                %      15

Give % Inhibition @ 10 uM for each of the items listed below.
1. ASGSCMALCFUFUMUSCS [RG-NG-1026]
2. ASGSCSALCFUFUMUSCS [RG-NG-1028]
3. ASGSCMAFCFUFUMUSUS [RG-NG-1017]

Given back:
["−3.5", 2, 4.3]

Provide % Inhibition @ 10 uM for all items below, preserving their order.
1. ASGECMAFCFUFUMTEGS [RG-NG-1008]
2. AMGLCLALCLUMTLUCM [RG-NG-1029]
3. ASGSCMAFCFUFUMUSAS [RG-NG-1015]

Given back:
1: 22.1; 2: 7; 3: 6.5

----------
Could you please report measured log10(IC50) for the items listed next?
Test system: AMPA-R
ASSAY_NAME: [3H]AMPA radioligand binding assay on rat brain synaptic membranes
CONDITION_NOTES: Table 8
e = 2'-O-(2-methoxyethyl) (MOE); k = constrained ethyl (cEt); d = 2'-deoxy (DNA); m = 2'-O-methyl; f = 2'-fluoro
# log10 transformed; quantity=IC50; unit=nM

Known log10(IC50) results, listed for orientation:
BIOSEQUENCE	log10(IC50)
GSCEAECETEGSTEADASGSCMAFCFUFUMUSGS (GCACTGTAAGCACUUUG; sugars from the 5' end keeeekedkkmfffmkk, backbone and methylation of C not given here) [RG-NG-1032]	3.07
ASGSCMAFCFUFUMUSGD [RG-NG-1033]	2.11
ASGSCMAFCFUFUMUSGM [RG-NG-1034]	3.08
ASGSCMAFCFUFUMUSNM [RG-NG-1036]	4.27

For each of the items listed, what is its log10(IC50)?
1. CETEGSCEAECETEGSTEADASGSCMAFCFUFUMUSGS (CTGCACTGTAAGCACUUUG; sugars from the 5' end eekeeeekedkkmfffmkk, backbone and methylation of C not given here) [RG-NG-1040]
2. ASGSCSASCSUSUSUSGS [RG-NG-1001]
3. ASGSCMAFCFUFUMUSGS [RGLS4326, reference compound]

Given back:
1. 4.46
2. 2.18
3. 3.21

The sequence listed as ASGSCMAFCFUFUMUSIM [RG-NG-1035] has a reported log10(IC50) of 2.88

----------
Record form. Attribute: EC50. Fill in for each entry.
System: miR-17
ASSAY_NAME: miR-17 PD-Sig in human kidney cell lines
Assay type: cell-based
CONDITION_NOTES: WT9-7, human, PKD
Answers are plain numbers, in nM.

Example sequences with recorded EC50:
> print(dat)
                       biosequence  test.target  property.name  number
1  ASGSCMAFCFUFUMUSAS [RG-NG-1015]       miR-17           EC50    21.2
2  ASGSCMAFCFUFUMUSUS [RG-NG-1017]       miR-17           EC50    20.1

# context switch: different sequence, same EC50
// EC50 lookup, sequence = ASGSCMAFCFUFUMUSGS [RGLS4326, reference compound] , result: 17.3

----------
TEST_TARGET: AMPA-R
ASSAY_NAME: [3H]AMPA radioligand binding assay on rat brain synaptic membranes
CONDITION_NOTES: Experiment #1
PROPERTY_NAME: log10 IC50 (log10 of the value in µM)
Hi team, quick reminder: these entries are log10 of IC50 (µM).

# count of solved cases: 4
BIOSEQUENCE	log10 IC50
ASGSCSASCSUSUSUSGS [RG-NG-1001]	-0.77
ASGSCMASCMUSUMUSGS [RG-NG-1003]	0.97
USASASGSCSASCSUSUSUSGS [RG-NG-1004]	1.24
ASGSCMAFCFUFUMUSGS [RGLS4326, reference compound]	-0.15

In plain terms, ALGLCLALCLTLTLTLGL [RG-NG-1006] has a documented log10 IC50 of 0.44

----------
Tested on: AMPA-R
ASSAY_NAME: [3H]AMPA radioligand binding assay on rat brain synaptic membranes;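 further: competition binding in which test compounds at rising concentrations displace [3H]AMPA from AMPA-R on rat brain synaptic membranes, with reduced bound radioligand as read-out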
CONDITION_NOTES: Experiment #2, 10 uM
Note to self: use t only for % Inhibition @ 10 uM readings below 70%; a reading exactly at 70% still gets f.

Past entries and their recorded results:
> print(dat)
                                biosequence  assigned.class
1  ASGSCMAFCFUFUMUSGS [RGLS4326, reference compound]               f
2           ALGLCMAFCFUFUMUSGS [RG-NG-1011]               f
3             ASGSCMAFCFUFUMUS [RG-NG-1014]               t
4           ASGSCFAFCFUFUFUSGS [RG-NG-1007]               f
5           ASGSCSAFCFUFUMUSCS [RG-NG-1027]               t
6  ASCSAMAFUFGFCMASCS [RG5124, reference compound]               t
7           ASGSCSASCSUSUSUSGS [RG-NG-1001]               f
8             ASGSCSASCSUSUSUS [RG-NG-1002]               t
9           AMAMGLCLALCLUMTLUM [RG-NG-1031]               t

Asked: Answer whether the sequence ASGSCMAFCFUFUMUSCS [RG-NG-1016] has % Inhibition @ 10 uM strictly less than 70%
Given back: t
